Test Target: Sodium-dependent noradrenaline transporter (Homo sapiens, UniProt P23975)
Sequence (P23975 whole entry): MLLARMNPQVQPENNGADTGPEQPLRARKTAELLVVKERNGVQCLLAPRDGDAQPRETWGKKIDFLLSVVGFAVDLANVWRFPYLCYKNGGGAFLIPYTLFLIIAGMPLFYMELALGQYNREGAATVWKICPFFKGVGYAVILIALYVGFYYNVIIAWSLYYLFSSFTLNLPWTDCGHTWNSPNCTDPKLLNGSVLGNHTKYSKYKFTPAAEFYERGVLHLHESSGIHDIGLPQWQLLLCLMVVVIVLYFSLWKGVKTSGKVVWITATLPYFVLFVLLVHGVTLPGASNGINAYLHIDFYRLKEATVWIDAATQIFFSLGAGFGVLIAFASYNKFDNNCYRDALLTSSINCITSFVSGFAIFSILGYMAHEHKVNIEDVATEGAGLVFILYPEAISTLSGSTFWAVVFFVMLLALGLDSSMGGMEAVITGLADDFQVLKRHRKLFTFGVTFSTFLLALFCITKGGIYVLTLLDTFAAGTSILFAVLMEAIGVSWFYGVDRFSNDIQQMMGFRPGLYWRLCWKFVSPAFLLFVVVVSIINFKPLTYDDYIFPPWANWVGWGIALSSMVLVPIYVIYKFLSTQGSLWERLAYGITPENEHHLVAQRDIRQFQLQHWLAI
Test: Inhibition of reuptake of [3H]-NE (20 nM) by norepinephrine transporter
Observable: IC50

CN(Cc1ccccc1)[C@H]1C[C@@H](c2ccc(Cl)c(Cl)c2)c2ccccc21 (relative stereo)
> 10000 nM
Clc1ccc([C@@H]2C[C@H](NCc3ccccc3)c3ccccc32)cc1Cl (relative stereo)
> 10000 nM
CCCN(C)[C@H]1C[C@@H](c2ccc(Cl)c(Cl)c2)c2ccccc21 (relative stereo)
540 nM
CCN[C@H]1C[C@@H](c2ccc(Cl)c(Cl)c2)c2ccccc21
170 nM
CCN[C@@H]1C[C@@H](c2ccc(Cl)c(Cl)c2)c2ccccc21 (relative stereo)
28 nM

Continue with the compound presented below.
Entry CN([C@H]1C[C@@H](c2ccc(Cl)c(Cl)c2)c2ccccc21)C(C)(C)C (relative stereo) has what IC50?
> 10000 nM

* * *

These compounds were tested on Sodium-dependent noradrenaline transporter (Homo sapiens); log10(Ki) is the recorded read-out.
log10 Ki, nM

Before answering, review these 6 worked examples.
Clc1ccc([C@@H]2C[C@@H](NCc3ccccc3)c3ccccc32)cc1Cl (relative stereo)
2.66
CCCN(C)[C@H]1C[C@@H](c2ccc(Cl)c(Cl)c2)c2ccccc21 (relative stereo)
3.30
CCN[C@@H]1C[C@@H](c2ccc(Cl)c(Cl)c2)c2ccccc21 (relative stereo)
1.68
CC(C)N(C)[C@@H]1C[C@@H](c2ccc(Cl)c(Cl)c2)c2ccccc21
2.41
CN([C@H]1C[C@@H](c2ccc(Cl)c(Cl)c2)c2ccccc21)C(C)(C)C (relative stereo)
3.34
CC(C)N[C@@H]1C[C@@H](c2ccc(Cl)c(Cl)c2)c2ccccc21
2.04

Entry CC(C)(C)N[C@@H]1C[C@@H](c2ccc(Cl)c(Cl)c2)c2ccccc21 (relative stereo) has what log10(Ki)?
2.18

Likewise for CCCN[C@H]1C[C@@H](c2ccc(Cl)c(Cl)c2)c2ccccc21 (relative stereo) ?
2.73

Likewise for CCCN(C)[C@@H]1C[C@@H](c2ccc(Cl)c(Cl)c2)c2ccccc21 (relative stereo) ?
2.60

Likewise for CN(C)[C@@H]1C[C@@H](c2ccc(Cl)c(Cl)c2)c2ccccc21.O=C(O)/C=C\C(=O)O (relative stereo) ?
1.98

Likewise for CN(C)[C@@H]1C[C@@H](c2ccc(Cl)c(Cl)c2)c2ccccc21 (stereo in doubt; (+)) ?
1.72

* * *

Test Target: Sodium-dependent dopamine transporter (Homo sapiens, UniProt Q01959)
Sequence (Q01959 whole entry): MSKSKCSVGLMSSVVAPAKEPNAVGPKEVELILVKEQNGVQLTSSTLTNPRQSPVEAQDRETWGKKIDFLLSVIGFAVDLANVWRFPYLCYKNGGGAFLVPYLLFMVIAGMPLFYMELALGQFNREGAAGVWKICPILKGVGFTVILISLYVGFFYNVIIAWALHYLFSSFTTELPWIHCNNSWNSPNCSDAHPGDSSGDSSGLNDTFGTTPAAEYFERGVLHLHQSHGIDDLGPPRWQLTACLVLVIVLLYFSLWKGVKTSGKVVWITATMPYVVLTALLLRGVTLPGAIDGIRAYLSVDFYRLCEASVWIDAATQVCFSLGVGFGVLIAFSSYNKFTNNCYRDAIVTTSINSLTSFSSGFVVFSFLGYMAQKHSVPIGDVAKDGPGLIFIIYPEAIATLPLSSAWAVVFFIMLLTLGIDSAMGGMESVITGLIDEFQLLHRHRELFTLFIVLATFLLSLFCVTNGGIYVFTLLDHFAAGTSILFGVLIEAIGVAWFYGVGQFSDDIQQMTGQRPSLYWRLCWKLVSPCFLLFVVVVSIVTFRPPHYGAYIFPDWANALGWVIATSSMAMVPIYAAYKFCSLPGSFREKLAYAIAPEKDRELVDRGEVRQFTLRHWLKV
Test: Ratio of dopamine uptake to dopamine binding
Observable: Ratio

Before answering, review these 3 worked examples.
CCCN(C)[C@H]1C[C@@H](c2ccc(Cl)c(Cl)c2)c2ccccc21 (relative stereo)
0.83
CC(C)N[C@H]1C[C@@H](c2ccc(Cl)c(Cl)c2)c2ccccc21 (relative stereo)
3.1
CN([C@@H]1C[C@@H](c2ccc(Cl)c(Cl)c2)c2ccccc21)C(C)(C)C (relative stereo)
3

Entry CCCN[C@H]1C[C@@H](c2ccc(Cl)c(Cl)c2)c2ccccc21 (relative stereo) has what Ratio?
2.2

* * *

Test Target: Sodium-dependent serotonin transporter (Homo sapiens, UniProt P31645)
Sequence (P31645 whole entry): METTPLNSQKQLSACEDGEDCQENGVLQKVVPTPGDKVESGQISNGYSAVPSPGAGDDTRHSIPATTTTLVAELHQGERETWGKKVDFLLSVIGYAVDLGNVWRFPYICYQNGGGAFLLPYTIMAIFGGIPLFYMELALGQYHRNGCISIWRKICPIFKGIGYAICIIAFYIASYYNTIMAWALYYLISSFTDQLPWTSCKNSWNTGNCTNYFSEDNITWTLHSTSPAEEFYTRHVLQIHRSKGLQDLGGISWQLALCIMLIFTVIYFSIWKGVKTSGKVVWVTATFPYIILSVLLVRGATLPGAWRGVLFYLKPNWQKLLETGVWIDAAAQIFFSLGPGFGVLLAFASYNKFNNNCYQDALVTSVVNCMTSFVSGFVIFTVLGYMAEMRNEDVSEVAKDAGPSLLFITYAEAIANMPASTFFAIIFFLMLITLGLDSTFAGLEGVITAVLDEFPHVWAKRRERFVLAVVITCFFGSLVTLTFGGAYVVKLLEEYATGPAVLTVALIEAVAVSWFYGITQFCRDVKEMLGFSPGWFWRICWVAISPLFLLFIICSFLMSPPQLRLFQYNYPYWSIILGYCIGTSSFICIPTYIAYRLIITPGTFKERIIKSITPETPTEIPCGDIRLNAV
Test: Inhibition of reuptake of [3H]5-HT (20 nM) by serotonin transporter
The label Criterion met is reserved for IC50 strictly under 700 nM; Criterion not met covers values equal to or above it.

Clc1ccc([C@@H]2C[C@H](NCc3ccccc3)c3ccccc32)cc1Cl (relative stereo)
Criterion not met
CC(C)(C)N[C@H]1C[C@@H](c2ccc(Cl)c(Cl)c2)c2ccccc21 (relative stereo)
Criterion not met
CC(C)(C)N[C@@H]1C[C@@H](c2ccc(Cl)c(Cl)c2)c2ccccc21 (relative stereo)
Criterion not met
CN(Cc1ccccc1)[C@@H]1C[C@@H](c2ccc(Cl)c(Cl)c2)c2ccccc21 (relative stereo)
Criterion not met
Clc1ccc([C@@H]2C[C@@H](NCc3ccccc3)c3ccccc32)cc1Cl (relative stereo)
Criterion not met
CN(C)[C@H]1C[C@@H](c2ccc(Cl)c(Cl)c2)c2ccccc21 (relative stereo)
Criterion met
CN(C)[C@@H]1C[C@@H](c2ccc(Cl)c(Cl)c2)c2ccccc21 (stereo in doubt; (+))
Criterion met
CCCN(C)[C@@H]1C[C@@H](c2ccc(Cl)c(Cl)c2)c2ccccc21 (relative stereo)
Criterion met

State whether 700 nM exceeds IC50 recorded for CN([C@@H]1C[C@@H](c2ccc(Cl)c(Cl)c2)c2ccccc21)C(C)(C)C (relative stereo) .
Criterion not met

Likewise for CCCN[C@@H]1C[C@@H](c2ccc(Cl)c(Cl)c2)c2ccccc21 (relative stereo) ?
Criterion met
